Test system: conscious cynomolgus monkeys
Assay: Cardiovascular side effects (blood pressure, heart rate) after i.v. administration
Type: in vivo, cynomolgus monkey
Settings: i.v. 17 μg/kg, up to 6 hours; + with * = increase from base levels
property-name: Maximum % Decrease From Pretreatment Levels, Heart Rate

Solved entries:
> print(dat)
                                   molecule       measured
1                c1ccc2sc(Cc3c[nH]cn3)cc2c1  +9.4 ± 1.8* %
2  Clc1cccc(Cl)c1N=C1NCCN1 [clonidine, reference compound]        32 ± 4%
3                     c1nc(CC2CCCCC2)c[nH]1        13 ± 4%
4                CN1CCOc2ccc(N=C3NCCN3)cc21        11 ± 4%

Attention now turns to another entry.
If you can, please state the reported Maximum % Decrease From Pretreatment Levels, Heart Rate value of Brc1c(NC2=NCCN2)ccc2nccnc12 [brimonidine, reference compound] .
52 ± 3%
